Reference for the values: ChEMBL document CHEMBL1148785

- Test system: Plasmodium falciparum
- Assay notes: Antimalarial activity against Plasmodium falciparum K1
- Assay type: functional
- Reported conditions: Plasmodium falciparum, K1; read-out: ED50 (the source's name)
Measured attribute: pEC50
Scale: negative log10 of molar concentration, which is what pEC50 denotes.

(Q) Please report the measured pEC50 for Cn1cnc(CN2CC(N(Cc3ccc(S(C)(=O)=O)cc3)S(=O)(=O)c3cn(C)cn3)Cc3cc(-c4ccccc4)ccc32)c1 (centres undefined) tested on Plasmodium falciparum.
(A) 6.35

(Q) Please report the measured pEC50 for Cn1cnc(CN2CC(N(CCNC(=O)OC(C)(C)C)S(=O)(=O)c3cn(C)cn3)Cc3cc(-c4ccccc4)ccc32)c1 (centres undefined) tested on Plasmodium falciparum.
(A) 6.12

(Q) Please report the measured pEC50 for Cc1noc(C)c1CN(C1Cc2cc(C#N)ccc2N(Cc2cncn2C)C1)S(=O)(=O)c1ccccn1 (centres undefined) tested on Plasmodium falciparum.
(A) 6.02

(Q) Please report the measured pEC50 for COC(=O)N1CCC(CN(C2Cc3cc(C#N)ccc3N(Cc3cncn3C)C2)S(=O)(=O)c2cccc3nonc23)CC1 (centres undefined) tested on Plasmodium falciparum.
(A) 7.00

(Q) Please report the measured pEC50 for CC(C)C(=O)N1CCC(CN(C2Cc3cc(C#N)ccc3N(Cc3cncn3C)C2)S(=O)(=O)c2ccccn2)CC1 (centres undefined) tested on Plasmodium falciparum.
(A) 7.89

(Q) Please report the measured pEC50 for Cn1cnc(S(=O)(=O)N(CCN2C(=O)c3ccccc3C2=O)C2Cc3cc(C#N)ccc3N(Cc3cncn3C)C2)c1 (centres undefined) tested on Plasmodium falciparum.
(A) 7.74
